protocol-conditions: Ebola virus entry assay, ratio channel
Active and inactive are the calls of the source.
Bench note: report the call from class 1 = active, class 0 = inactive

Identify the outcome logged in this assay for the compound shown: Cc1ccc(C)c(OCCCC(C)(C)C(=O)O)c1
class 0

Identify the outcome logged in this assay for the compound shown: Cc1ccc(-n2nc(C(C)(C)C)cc2NC(=O)Nc2ccc(OCCN3CCOCC3)c3ccccc23)cc1
class 1

Identify the outcome logged in this assay for the compound shown: CC(CN1c2ccccc2Sc2ccccc21)N(C)C (stereo unspecified)
class 1

Identify the outcome logged in this assay for the compound shown: CN1CCC[C@@H]1Cc1c[nH]c2ccc(CCS(=O)(=O)c3ccccc3)cc12
class 1

Identify the outcome logged in this assay for the compound shown: CC[C@@H](CO)NC(=O)[C@@H]1C=C2c3cccc4c3c(cn4C)C[C@H]2N(C)C1
class 0

Identify the outcome logged in this assay for the compound shown: CCCCCOC(=O)Nc1nc(=O)n([C@@H]2O[C@H](C)[C@@H](O)[C@H]2O)cc1F
class 0

Identify the outcome logged in this assay for the compound shown: COc1cc(NC(C)CCCN)c2ncccc2c1 (stereo unspecified)
class 1

Identify the outcome logged in this assay for the compound shown: CC(C)C1CCC(C(=O)N[C@H](Cc2ccccc2)C(=O)O)CC1 (stereo partly specified)
class 0

Identify the outcome logged in this assay for the compound shown: CC(C)(C#N)c1cc(Cn2cncn2)cc(C(C)(C)C#N)c1
class 0

Identify the outcome logged in this assay for the compound shown: Clc1ccc(COC(Cn2ccnc2)c2ccc(Cl)cc2Cl)cc1 (stereo unspecified)
class 1

Identify the outcome logged in this assay for the compound shown: Cn1cc[nH]c1=S
class 0

====

assay-procedure: Cell Viability - LYMP2-005 (AID 967);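 further: cells exposed to compound for 24 h at 37 °C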
protocol-conditions: LYMP2-005 lymphoblastoid cell viability; series mostly up to 92.2 µM
Results filed as inconclusive are left out. Activity calls are given as the source filed them. Calls come from the whole dose curve; as a rule, active = well fitted cell-killing curve with a large enough effect; inconclusive = small, poorly fitted or top-dose-only effect, or effect the other way; inactive = no such curve, though single readings can be large or run the other way.
Bench note: report the call from true (1) for active, false (0) for inactive

Identify the outcome logged in this assay for the molecule shown: CCOP(=S)(OCC)Oc1cc(C)nc(C(C)C)n1
false (0)

Identify the outcome logged in this assay for the molecule shown: Oc1ccc(Cl)cc1Cc1ccccc1
false (0)

Identify the outcome logged in this assay for the molecule shown: C[C@]12C/C(=C/O)C(=O)C[C@@H]1CC[C@@H]1[C@@H]2CC[C@@]2(C)[C@H]1CC[C@]2(C)O
false (0)

Identify the outcome logged in this assay for the molecule shown: Oc1ccccc1-c1ccccc1
false (0)

Identify the outcome logged in this assay for the molecule shown: NCC(O)c1ccc(O)cc1 (stereo not drawn)
false (0)

Identify the outcome logged in this assay for the molecule shown: CNCC(O)c1ccc(O)cc1 (stereo not drawn)
false (0)

Identify the outcome logged in this assay for the molecule shown: c1ccc2c(c1)Nc1ccccc1S2
false (0)

Identify the outcome logged in this assay for the molecule shown: CC(=O)Oc1ccccc1C(=O)Nc1ncc([N+](=O)[O-])s1
true (1)

====

Test system: AA1029
assay-procedure: qHTS profiling for inhibitors of Plasmodium falciparum proliferation (AID 504749); further: nearly all actives have a fitted effect of over 60% in size
protocol-conditions: P. falciparum in erythrocytes, SYBR Green DNA, 72 h; series mostly up to 28.7 µM
Inconclusive results are not listed. Activity calls are given as the source filed them. Calls follow the shape of the dose curve; as a rule, active = well fitted inhibition curve with a large enough effect; inconclusive = small, poorly fitted or top-dose-only effect; inactive = flat fitted curve, though single readings scatter.
Bench note: report the call from Y for active, N for inactive

Identify the outcome logged in this assay for the molecule shown: CN1C(=S)CN=C(c2ccccc2)c2cc(Cl)ccc21
N

Identify the outcome logged in this assay for the molecule shown: c1ccc2c(c1)OCC(C1=NCCN1)O2 (stereo not given)
N

Identify the outcome logged in this assay for the molecule shown: CCC1(C2=NCCN2)Cc2ccccc2O1 (stereo not given)
Y

Identify the outcome logged in this assay for the molecule shown: O=C(NC(O)C(Cl)(Cl)Cl)NC(O)C(Cl)(Cl)Cl (stereo not given)
N

Identify the outcome logged in this assay for the molecule shown: CC(C)=CC1C(C(=O)OCc2cccc(Oc3ccccc3)c2)C1(C)C (stereo not given)
N

Identify the outcome logged in this assay for the molecule shown: O=c1[nH]c2ccccc2n1C1CCN(CCCC(c2ccc(F)cc2)c2ccc(F)cc2)CC1
N

Identify the outcome logged in this assay for the molecule shown: Oc1ccccc1-c1ccccc1
N

Identify the outcome logged in this assay for the molecule shown: C[C@]12C/C(=C/O)C(=O)C[C@@H]1CC[C@@H]1[C@@H]2CC[C@@]2(C)[C@H]1CC[C@]2(C)O
N

Identify the outcome logged in this assay for the molecule shown: CC(C)(C)CC(C)(C)c1ccc(O)cc1
N

Identify the outcome logged in this assay for the molecule shown: c1ccc(C2CC2)c(OCC2=NCCN2)c1
N

Identify the outcome logged in this assay for the molecule shown: CC(=O)Nc1cc([As](=O)(O)O)ccc1O
N

Identify the outcome logged in this assay for the molecule shown: CC1OC(C)OC(C)O1 (stereo not given)
N

Identify the outcome logged in this assay for the molecule shown: O=C(O)c1ccc2[nH]cc(CCCCN3CC=C(c4ccccc4)CC3)c2c1
N

Identify the outcome logged in this assay for the molecule shown: NN=C(N)N
N

Identify the outcome logged in this assay for the molecule shown: CC(=O)[C@H]1CC[C@H]2[C@@H]3CC[C@H]4C[C@H](O)CC[C@]4(C)[C@H]3C(=O)C[C@]12C
N

Identify the outcome logged in this assay for the molecule shown: CCOC(=O)C1(c2ccccc2)CCN(CCC(C#N)(c2ccccc2)c2ccccc2)CC1
Y

Identify the outcome logged in this assay for the molecule shown: CCC(COC(=O)c1cc(OC)c(OC)c(OC)c1)(c1ccccc1)N(C)C (stereo not given)
N

Identify the outcome logged in this assay for the molecule shown: CC[C@@H](CO)NC(=O)[C@@H]1C=C2c3cccc4[nH]cc(c34)C[C@H]2N(C)C1
N

Identify the outcome logged in this assay for the molecule shown: CCN(C(C)=O)c1cccc(-c2ccnc3c(C#N)cnn23)c1
N

Identify the outcome logged in this assay for the molecule shown: CCOP(=S)(OCC)Oc1cc(C)nc(C(C)C)n1
N

Identify the outcome logged in this assay for the molecule shown: CC(C)NCC(O)c1ccccc1Cl (stereo not given)
Y

Identify the outcome logged in this assay for the molecule shown: CC(C)CC(N(C)C)C1(c2ccc(Cl)cc2)CCC1 (stereo not given)
N

Identify the outcome logged in this assay for the molecule shown: CCCC1CCCCN1 (stereo not given)
N

Identify the outcome logged in this assay for the molecule shown: Clc1cccc(N2CCNCC2)c1
N

Identify the outcome logged in this assay for the molecule shown: Cn1c(CCCC(=O)O)nc2cc(N(CCCl)CCCl)ccc21
N

====

assay-procedure: qHTS for Inhibitors of the Functional Ribonucleoprotein Complex (vRNP) of Lassa (LASV) Arenavirus: Viability assay - alamar blue signal for LASV Primary Screen (AID 1347083); further: nearly all actives have a fitted effect of over 80% in size
protocol-conditions: cell viability, alamar blue fluorescence (LASV minigenome counter-screen); series mostly up to 57.5 µM
Inconclusive results are not listed. Calls of active or inactive are those of the source. Calls come from the whole dose curve; tested in HEK293 reporter line.
Bench note: report the call from Y (active), N (inactive)

Identify the outcome logged in this assay for the compound shown: CC(C)C(=O)Nc1ccc([N+](=O)[O-])c(C(F)(F)F)c1
N

Identify the outcome logged in this assay for the compound shown: CCCN1CCC[C@@H]2Cc3[nH]ncc3C[C@H]21
N

Identify the outcome logged in this assay for the compound shown: Cc1c(O)cccc1C(=O)N[C@@H](CSc1ccccc1)[C@H](O)CN1C[C@H]2CCCC[C@H]2C[C@H]1C(=O)NC(C)(C)C
N

Identify the outcome logged in this assay for the compound shown: CCN(C(C)=O)c1cccc(-c2ccnc3c(C#N)cnn23)c1
N

Identify the outcome logged in this assay for the compound shown: CN(CCOc1ccc(CC2SC(=O)NC2=O)cc1)c1ccccn1 (centres undefined)
N

Identify the outcome logged in this assay for the compound shown: Cc1cccc(C)c1OCC(C)N (centres undefined)
N

Identify the outcome logged in this assay for the compound shown: CC(C)(N)Cc1ccc(Cl)cc1
N

Identify the outcome logged in this assay for the compound shown: CC(C)NC[C@@H](O)COc1ccc(CC(N)=O)cc1
N

Identify the outcome logged in this assay for the compound shown: Nc1nc2c(ncn2COCCO)c(=O)[nH]1
N

Identify the outcome logged in this assay for the compound shown: CO/N=C1\CN(c2nc3c(cc2F)c(=O)c(C(=O)O)cn3C2CC2)CC1CN (centres undefined)
N

Identify the outcome logged in this assay for the compound shown: OC(CCN1CCCC1)(c1ccccc1)C1CCCCC1 (centres undefined)
N

Identify the outcome logged in this assay for the compound shown: CC(=O)[C@H]1CC[C@H]2[C@@H]3CC[C@H]4C[C@](C)(O)CC[C@]4(C)[C@H]3CC[C@]12C
N

Identify the outcome logged in this assay for the compound shown: COC(=O)[C@H]1[C@H]2C[C@@H]3c4[nH]c5cc(OC)ccc5c4CCN3C[C@H]2C[C@@H](OC(=O)c2cc(OC)c(OC)c(OC)c2)[C@@H]1OC
N

Identify the outcome logged in this assay for the compound shown: O=C1CCc2cc(OCCCCc3nnnn3C3CCCCC3)ccc2N1
N

Identify the outcome logged in this assay for the compound shown: CCOC(=O)[C@H](CCc1ccccc1)N[C@@H](C)C(=O)N1Cc2cc(OC)c(OC)cc2C[C@H]1C(=O)O
N

Identify the outcome logged in this assay for the compound shown: Cc1cc2c(s1)Nc1ccccc1N=C2N1CCN(C)CC1
N

Identify the outcome logged in this assay for the compound shown: CC[N+]1(C)CCCC(OC(=O)C(O)(c2ccccc2)c2ccccc2)C1 (centres undefined)
N

Identify the outcome logged in this assay for the compound shown: CC(=O)O[C@]1(C(C)=O)CC[C@H]2[C@@H]3C=C(Cl)C4=CC(=O)[C@@H]5C[C@@H]5[C@]4(C)[C@H]3CC[C@@]21C
N

Identify the outcome logged in this assay for the compound shown: Cc1cn([C@H]2C=C[C@@H](CO)O2)c(=O)[nH]c1=O
N

Identify the outcome logged in this assay for the compound shown: COCCCC/C(=N\OCCN)c1ccc(C(F)(F)F)cc1
N

Identify the outcome logged in this assay for the compound shown: O=[N+]([O-])c1cc([As](=O)(O)O)ccc1O
N

Identify the outcome logged in this assay for the compound shown: COC(=O)[C@@H]1CC2=CC(=O)CC[C@]2(C)[C@@]23O[C@@H]2C[C@@]2(C)[C@@H](CC[C@@]24CCC(=O)O4)[C@H]13
N

Identify the outcome logged in this assay for the compound shown: C=C(c1ccc(C(=O)O)cc1)c1cc2c(cc1C)C(C)(C)CCC2(C)C
N

Identify the outcome logged in this assay for the compound shown: CC(=O)[C@H]1CC[C@H]2[C@@H]3CC[C@H]4C[C@H](O)CC[C@]4(C)[C@H]3C(=O)C[C@]12C
N

Identify the outcome logged in this assay for the compound shown: CN1CCc2cccc3c2[C@H]1Cc1ccc(O)c(O)c1-3
N

Identify the outcome logged in this assay for the compound shown: CCN(CC)C(=S)SSC(=S)N(CC)CC
Y

Identify the outcome logged in this assay for the compound shown: O=C(O)C1(C(=O)O)CCC1.[NH2-].[NH2-].[Pt+2]
N

Identify the outcome logged in this assay for the compound shown: CC[N+](C)(C)c1cccc(O)c1
N

Identify the outcome logged in this assay for the compound shown: COC(=O)CCc1ccc(OCC(O)CNC(C)C)cc1 (centres undefined)
N

Identify the outcome logged in this assay for the compound shown: C[C@@H](NCCCc1cccc(C(F)(F)F)c1)c1cccc2ccccc12
N

Identify the outcome logged in this assay for the compound shown: CCCCNC(=O)NS(=O)(=O)c1ccc(C)cc1
N

Identify the outcome logged in this assay for the compound shown: CNC1(C)C2CCC(C2)C1(C)C (centres undefined)
N

Identify the outcome logged in this assay for the compound shown: Cc1onc(-c2c(Cl)cccc2Cl)c1C(=O)N[C@@H]1C(=O)N2[C@@H]1SC(C)(C)[C@@H]2C(=O)O
N

Identify the outcome logged in this assay for the compound shown: COc1cc2ncnc(Nc3ccc(F)c(Cl)c3)c2cc1OCCCN1CCOCC1
Y

Identify the outcome logged in this assay for the compound shown: CCCNCC(O)COc1ccccc1C(=O)CCc1ccccc1 (centres undefined)
N

Identify the outcome logged in this assay for the compound shown: Clc1ccc(CCC(Cn2ccnc2)Sc2c(Cl)cccc2Cl)cc1 (centres undefined)
N

Identify the outcome logged in this assay for the compound shown: C=C[C@H]1CN2CC[C@H]1C[C@@H]2[C@@H](O)c1ccnc2ccc(OC)cc12
N

Identify the outcome logged in this assay for the compound shown: O=NN(CCCl)C(=O)NCCCl
N

Identify the outcome logged in this assay for the compound shown: CCCC1CCCCN1 (centres undefined)
N

Identify the outcome logged in this assay for the compound shown: Oc1cc(Cl)ccc1Oc1ccc(Cl)cc1Cl
N

Identify the outcome logged in this assay for the compound shown: CN(C)C(=N)N=C(N)N
N

Identify the outcome logged in this assay for the compound shown: Clc1ccc(C(c2ccccc2Cl)C(Cl)Cl)cc1 (centres undefined)
N

Identify the outcome logged in this assay for the compound shown: CC(N)C12CC3CC(CC(C3)C1)C2 (centres undefined)
N

Identify the outcome logged in this assay for the compound shown: C[C@@H](O)[C@H]1C(=O)N2C(C(=O)O)=C(S[C@@H]3CN[C@H](CNS(N)(=O)=O)C3)[C@H](C)[C@H]12
N

Reference for the values: PubChem BioAssay (NCATS)
